assay_summary: qHTS Multiplex Assay to Identify Dual Action Probes in a Cell Model of Huntington: Cytoprotection confirmation (ATP)
condition_summary: PC12 HttQ103 induced, ATP luminescence 40 h; series mostly up to 46.1 µM
Inconclusive results are not listed. Active and inactive are the calls of the source. Calls follow the shape of the dose curve; as a rule, active = well fitted activation curve with a large enough effect; inconclusive = small, poorly fitted or top-dose-only effect; inactive = no such curve, though single readings can be large or run the other way.
Write down one outcome, taken from true (1) = active, false (0) = inactive

[
  {
    "compound": "O=C1C=C2C=CC3C[C@@]2(O1)C1CCCCN31 (some centres not stated)",
    "category_label": "true (1)"
  },
  {
    "compound": "O=C1C=C2C=C[C@H]3C[C@@]2(O1)[C@H]1CCCCN31",
    "category_label": "false (0)"
  },
  {
    "compound": "O=C1C=C2C=C[C@H]3C[C@]2(O1)[C@@H]1CCCCN13",
    "category_label": "false (0)"
  },
  {
    "compound": "CCC(C)C(=O)OC1C(O)C2C(CN3CC(C)CCC3[C@]2(C)O)C2C[C@]34O[C@@]5(O)C(OC(=O)C(C)(O)CC)CCC3(C)C5C(OC(C)=O)C(OC(C)=O)C4[C@@]21O (some centres not stated)",
    "category_label": "false (0)"
  }
]

Query: Hey, what did the test say about Oc1cc(Cl)ccc1Oc1ccc(Cl)cc1Cl ?
Response: false (0)

Query: Hey, what did the test say about C[C@H]1CC[C@@]2(NC1)O[C@@H]1C[C@H]3[C@@H]4CC=C5C[C@@H](O)CC[C@]5(C)[C@@H]4CC[C@]3(C)[C@@H]1[C@@H]2C ?
Response: false (0)

Query: Hey, what did the test say about CC[C@]1(C2=NCCN2)Cc2ccccc2O1 ?
Response: false (0)
